system: Trypanosoma brucei rhodesiense; experiment: Antitrypanosomal activity against Trypanosoma brucei rhodesiense STIB900 infected in NMRI mouse assessed as mean survival days at 5 mg/kg, ip administered for 4 days; format: functional; details: route intraperitoneal
Quantity Name: MSD

-- ask Give the reported value of MSD for this record: "N=C(N)c1ccc(COc2ccc(C(=N)N)cc2Cl)cc1"
-- reply >51 days

-- ask Give the reported value of MSD for this record: "N=C(N)c1ccc(OCCCCCOc2ccc(C(=N)N)cc2)cc1"
-- reply >38 days

-- ask Give the reported value of MSD for this record: "COc1cc(C(=N)N)cc(Br)c1OCc1cccc(C(=N)N)c1.Cl.Cl"
-- reply >45.75 days

-- ask Give the reported value of MSD for this record: "N=C(N)c1ccc(COc2c(I)cc(C(=N)N)cc2I)cc1"
-- reply 24.5 days

-- ask Give the reported value of MSD for this record: "N=C(N)c1cccc(COc2c(Br)cc(C(=N)N)cc2Br)c1"
-- reply >35.25 days

-- ask Give the reported value of MSD for this record: "N=C(N)c1cccc(COc2c(Cl)cc(C(=N)N)cc2Cl)c1"
-- reply 27.5 days

-- ask Give the reported value of MSD for this record: "COc1cc(C(=N)N)cc(I)c1OCc1cccc(C(=N)N)c1.Cl"
-- reply 35.75 days

-- ask Give the reported value of MSD for this record: "N=C(N)c1cccc(COc2ccc(C(=N)N)cc2Br)c1"
-- reply >37.5 days

-- ask Give the reported value of MSD for this record: "N=C(N)c1ccc(COc2ccc(C(=N)N)cc2I)cc1"
-- reply >41.5 days

-- ask Give the reported value of MSD for this record: "N=C(N)c1ccc(COc2cccc(C(=N)N)c2)cc1"
-- reply 19 days

-- ask Give the reported value of MSD for this record: "N=C(N)c1ccc(COc2ccc(C(=N)N)cc2)cc1"
-- reply 22.5 days

----------
tested on: Leishmania donovani; assay: Antileishmanial activity against amastigotes of Leishmania donovani MHOM/SD/62/IS-CL2D; assay type: functional, organism-based
Could you please report measured IC50 for the items listed next?
Quick note: give the figure in µM, leave out the unit.

-- ask Give the reported value of IC50 for this record: "N=C(N)c1ccc(COc2ccc(C(=N)N)cc2I)cc1"
-- reply 1.94

-- ask Give the reported value of IC50 for this record: "COc1cc(/C(N)=N/O)cc(OC)c1OCc1ccc(/C(N)=N/O)cc1.Cl.Cl"
-- reply 34.1

-- ask Give the reported value of IC50 for this record: "CO/N=C(\N)c1ccc(COc2c(OC)cc(/C(N)=N/OC)cc2OC)cc1.Cl.Cl"
-- reply 100

----------
test system: Leishmania donovani; test: Antileishmanial activity against amastigotes of Leishmania donovani MHOM/SD/62/IS-CL2D; type: functional, organism-based
Field 'label' (enum: yes / no). Set to yes when IC50 is strictly under 9 µM; else no.

-- ask Find out if reported IC50 for "Cl.Cl.N=C(N)c1cccc(COc2ccc(C(=N)N)cc2[N+](=O)[O-])c1" is less than 9 µM
-- reply no

-- ask Find out if reported IC50 for "N=C(N)c1cccc(COc2c(Br)cc(C(=N)N)cc2Br)c1" is less than 9 µM
-- reply yes

-- ask Find out if reported IC50 for "Cl.Cl.N/C(=N\O)c1cccc(COc2c(I)cc(/C(N)=N/O)cc2I)c1" is less than 9 µM
-- reply yes

-- ask Find out if reported IC50 for "CO/N=C(\N)c1ccc(COc2ccc(/C(N)=N/OC)cc2)cc1.Cl.Cl" is less than 9 µM
-- reply no

-- ask Find out if reported IC50 for "CO/N=C(\N)c1cccc(COc2ccc(/C(N)=N/OC)cc2Br)c1.Cl.Cl" is less than 9 µM
-- reply yes

-- ask Find out if reported IC50 for "Cl.Cl.N/C(=N\O)c1ccc(COc2ccc(/C(N)=N/O)cc2I)cc1" is less than 9 µM
-- reply no

-- ask Find out if reported IC50 for "Cl.Cl.N/C(=N\O)c1cccc(COc2c(Br)cc(/C(N)=N/O)cc2Br)c1" is less than 9 µM
-- reply no

-- ask Find out if reported IC50 for "Cl.Cl.N/C(=N\O)c1ccc(COc2ccc(/C(N)=N/O)cc2Br)cc1" is less than 9 µM
-- reply no

-- ask Find out if reported IC50 for "CO/N=C(\N)c1cccc(COc2ccc(/C(N)=N/OC)cc2I)c1.Cl.Cl" is less than 9 µM
-- reply no
